Target: BRAFWT (Homo sapiens, UniProt P15056)
Construct: purchased BPS Biosciences 78316
Sequence (P15056 whole entry): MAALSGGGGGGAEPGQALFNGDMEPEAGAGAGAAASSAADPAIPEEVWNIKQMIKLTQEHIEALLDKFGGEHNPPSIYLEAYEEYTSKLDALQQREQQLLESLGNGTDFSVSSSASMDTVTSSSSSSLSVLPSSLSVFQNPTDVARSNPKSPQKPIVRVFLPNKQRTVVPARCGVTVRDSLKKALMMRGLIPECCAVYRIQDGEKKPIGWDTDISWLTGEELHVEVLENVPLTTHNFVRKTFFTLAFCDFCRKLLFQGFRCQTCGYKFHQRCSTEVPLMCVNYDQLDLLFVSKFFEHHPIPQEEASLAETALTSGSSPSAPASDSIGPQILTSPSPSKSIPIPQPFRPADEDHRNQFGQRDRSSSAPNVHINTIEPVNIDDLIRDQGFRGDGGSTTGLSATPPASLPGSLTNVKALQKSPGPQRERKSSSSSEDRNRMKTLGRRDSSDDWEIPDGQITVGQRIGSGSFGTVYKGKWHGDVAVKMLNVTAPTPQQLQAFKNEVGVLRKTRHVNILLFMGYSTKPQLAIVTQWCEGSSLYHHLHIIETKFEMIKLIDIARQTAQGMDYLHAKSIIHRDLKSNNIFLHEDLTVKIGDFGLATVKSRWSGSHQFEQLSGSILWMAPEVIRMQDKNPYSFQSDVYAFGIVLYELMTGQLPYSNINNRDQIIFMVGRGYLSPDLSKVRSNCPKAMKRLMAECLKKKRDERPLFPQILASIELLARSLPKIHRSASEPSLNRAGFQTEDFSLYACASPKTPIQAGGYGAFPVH
Assay: BRAFWT kinase assay kit (Kinase-Glo Max luminescence)
Assay type: biochemical
Conditions: BRAFwt, 10 µM; mean of two independent experiments ± SD
Procedure: The inhibitory activities of 10a–p on BRAFWT was examined utilizing BRAFWT assay kit (BPS Biosciences—San Diego—CA—US) (For further information see Additional file A). 4. Biochemical kinase assays The inhibitory activity against different kinases was determined using kinase kits (BRAF WT […] Glo Max luminescence kinase assay kit (Promega). […] The plate was incubated at 30 °C for 45 min. […] Finally, the luminescence was recorded using multimode microplate reader. […]
Label 1 when inhibition at 10 µM is at or above 50%; anything below gets 0.

# example entries with known answers
>>> label("COC(=O)COc1cccc(C=NNC(=O)Cn2c(-c3ccc(OC)cc3)nc3cc(Cl)c(Cl)cc32)c1 [Compound 10g]")
0
>>> label("COC(=O)COc1ccc(C=NNC(=O)Cn2c(-c3ccc(OC)cc3)nc3cc(Cl)c(Cl)cc32)cc1OC [Compound 10p]")
1
>>> label("COc1ccc(-c2nc3cc(Cl)c(Cl)cc3n2CC(=O)NN=Cc2ccc(O)c(OC)c2)cc1 [Compound 10l]")
1
>>> label("COc1ccc(C=NNC(=O)Cn2c(-c3ccc(OC)cc3)nc3cc(Cl)c(Cl)cc32)cc1 [Compound 10d]")
1

Lookup: In plain terms: is recorded inhibition at 10 µM at least 50% for COc1ccc(-c2nc3cc(Cl)c(Cl)cc3n2CC(=O)NN=Cc2ccc(O)cc2)cc1 [Compound 10b] ?
Found: 0

Lookup: In plain terms: is recorded inhibition at 10 µM at least 50% for COc1ccc(-c2nc3cc(Cl)c(Cl)cc3n2CC(=O)NN=Cc2cccc(O)c2)cc1 [Compound 10a] ?
Found: 0

Lookup: In plain terms: is recorded inhibition at 10 µM at least 50% for COc1ccc(-c2nc3cc(Cl)c(Cl)cc3n2CC(=O)NN=Cc2cccc(OC)c2)cc1 [Compound 10c] ?
Found: 1

Lookup: In plain terms: is recorded inhibition at 10 µM at least 50% for COc1ccc(-c2nc3cc(Cl)c(Cl)cc3n2CC(=O)NN=Cc2ccc(OCC(=O)O)cc2)cc1 [Compound 10f] ?
Found: 1

----------
System: HOP-92
Assay: NCI 60 single concentration growth inhibition
Type: cell-based, human
Settings: Homo sapiens, HOP-92, Non-small cell lung cancer, read-out: GI%
Label class 1 when inhibition at 10 µM is at or above 20%; anything below gets class 0.

# example entries with known answers
>>> label("CCOC(=O)C(C)Oc1ccc(C=NNC(=O)Cn2c(-c3ccc(OC)cc3)nc3cc(Cl)c(Cl)cc32)cc1 (stereo not shown) [Compound 10j]")
"class 0"
>>> label("COc1ccc(-c2nc3cc(Cl)c(Cl)cc3n2CC(=O)NN=Cc2cccc(OC)c2)cc1 [Compound 10c]")
"class 1"
>>> label("COc1ccc(-c2nc3cc(Cl)c(Cl)cc3n2CC(=O)NN=Cc2ccc(O)c(OC)c2)cc1 [Compound 10l]")
"class 1"

Lookup: In plain terms: is recorded inhibition at 10 µM at least 20% for COC(=O)COc1ccc(C=NNC(=O)Cn2c(-c3ccc(OC)cc3)nc3cc(Cl)c(Cl)cc32)cc1 [Compound 10h] ?
Found: class 0

Lookup: In plain terms: is recorded inhibition at 10 µM at least 20% for COc1ccc(-c2nc3cc(Cl)c(Cl)cc3n2CC(=O)NN=Cc2ccc(O)cc2)cc1 [Compound 10b] ?
Found: class 1

Lookup: In plain terms: is recorded inhibition at 10 µM at least 20% for COc1ccc(-c2nc3cc(Cl)c(Cl)cc3n2CC(=O)NN=Cc2ccc(OC)c(O)c2)cc1 [Compound 10k] ?
Found: class 0

Lookup: In plain terms: is recorded inhibition at 10 µM at least 20% for COc1ccc(-c2nc3cc(Cl)c(Cl)cc3n2CC(=O)NN=Cc2cccc(OCC(=O)O)c2)cc1 [Compound 10e] ?
Found: class 0

Hello, the source for this data is paper PMC11844072, in case you need it.
